We begin with a simple list: items and their reported Dmax.
# study.system: BTK (Homo sapiens (Human), UniProt Q06187)
# Sequence (Q06187 whole entry): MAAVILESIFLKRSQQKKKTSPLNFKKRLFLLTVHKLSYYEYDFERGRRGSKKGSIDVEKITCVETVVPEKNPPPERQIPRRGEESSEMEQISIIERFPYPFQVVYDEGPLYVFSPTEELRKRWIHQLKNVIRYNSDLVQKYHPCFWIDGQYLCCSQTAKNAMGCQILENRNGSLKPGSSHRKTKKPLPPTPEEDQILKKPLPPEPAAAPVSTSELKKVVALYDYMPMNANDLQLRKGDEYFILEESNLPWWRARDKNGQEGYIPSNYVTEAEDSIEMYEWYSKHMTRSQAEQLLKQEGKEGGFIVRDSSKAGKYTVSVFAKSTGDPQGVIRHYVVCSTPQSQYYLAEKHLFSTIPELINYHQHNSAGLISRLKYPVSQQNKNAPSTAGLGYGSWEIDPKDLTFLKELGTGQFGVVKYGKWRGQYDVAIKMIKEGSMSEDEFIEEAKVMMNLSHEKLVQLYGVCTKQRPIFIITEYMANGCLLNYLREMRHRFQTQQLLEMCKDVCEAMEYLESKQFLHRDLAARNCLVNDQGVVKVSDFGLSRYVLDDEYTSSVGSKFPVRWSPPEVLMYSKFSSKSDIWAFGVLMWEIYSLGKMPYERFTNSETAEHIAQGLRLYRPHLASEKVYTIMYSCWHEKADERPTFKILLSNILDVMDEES
# assay.details: BTK degradation in OCI-LY10 cells (Total-BTK HTRF kit)
# Format: cell-based
# run.parameters: OCI-Ly10, OCI-LY10 cells, 24 (or 6) h incubation; maximum degradation rate

- compound: "CN1CCN([C@@H]2CCCN(c3cnc(C(N)=O)c(Nc4ccc(N5CCC(N6CCc7ccc8c(C9CCC(=O)NC9=O)noc8c7C6)CC5)cc4)n3)C2)C1=O (some centres unmarked)"
  study.system: "BTK (Homo sapiens (Human), UniProt Q06187)"
  Dmax: "97%"
- compound: "CN1CCN([C@@H]2CCCN(c3cnc(C(N)=O)c(Nc4ccc(N5CCC(CN6CCc7c(ccc8c(C9CCC(=O)NC9=O)noc78)C6)CC5)cc4)n3)C2)C1=O (some centres unmarked)"
  study.system: "BTK (Homo sapiens (Human), UniProt Q06187)"
  Dmax: "> 90%"
- compound: "CN1CCN([C@@H]2CCCN(c3cnc(C(N)=O)c(Nc4ccc(N5CCC(CN6CCc7ccc8c(C9CCC(=O)NC9=O)noc8c7C6)CC5)cc4)n3)C2)C1=O (some centres unmarked)"
  study.system: "BTK (Homo sapiens (Human), UniProt Q06187)"
  Dmax: "> 90%"

What value of Dmax has been reported for the following compound? CN1CCN([C@@H]2CCCN(c3cnc(C(N)=O)c(Nc4ccc(C5CCN(CC6CN(c7ccc8c(C9CCC(=O)NC9=O)noc8c7)C6)CC5)cc4)n3)C2)C1=O (some centres unmarked) 99%

What value of Dmax has been reported for the following compound? NC(=O)c1ncc(N2CCCCC2)nc1Nc1ccc(N2CCC(CN3CCc4ccc5c(C6CCC(=O)NC6=O)noc5c4CC3)CC2)cc1 (centres unmarked) > 90%

What value of Dmax has been reported for the following compound? CN1CCN([C@@H]2CCCN(c3cnc(C(N)=O)c(Nc4ccc(C5CCC6(CC5)CC(N5CCc7ccc8c(C9CCC(=O)NC9=O)noc8c7CC5)C6)cc4)n3)C2)C1=O (some centres unmarked) > 90%

What value of Dmax has been reported for the following compound? CN1CCN([C@@H]2CCCN(c3cnc(C(N)=O)c(Nc4ccc(C5CCN(C6Cc7ccc8c(C9CCC(=O)NC9=O)noc8c7C6)CC5)cc4)n3)C2)C1=O (some centres unmarked) > 90%

What value of Dmax has been reported for the following compound? CN1CCN([C@@H]2CCCN(c3cnc(C(N)=O)c(Nc4ccc(C5CC6CCCC(C5)N6C5Cc6ccc7c(C8CCC(=O)NC8=O)noc7c6C5)cc4)n3)C2)C1=O (some centres unmarked) > 90%

What value of Dmax has been reported for the following compound? CN1CCN([C@@H]2CCCN(c3cnc(C(N)=O)c(Nc4ccc5c(c4)CN(C4CN(CC6Cc7ccc8c(C9CCC(=O)NC9=O)noc8c7C6)C4)C5)n3)C2)C1=O (some centres unmarked) > 90%

What value of Dmax has been reported for the following compound? CN1CCN([C@@H]2CCCN(c3cnc(C(N)=O)c(Nc4ccc(C5CCN(C[C@H]6CCN(c7ccc8c(C9CCC(=O)NC9=O)noc8c7)C6)CC5)cc4)n3)C2)C1=O (some centres unmarked) 99%

What value of Dmax has been reported for the following compound? CN1CCN([C@@H]2CCCN(c3cnc(C(N)=O)c(Nc4ccc(C5CCN(CC6CN(c7cc8onc(C9CCC(=O)NC9=O)c8c8ccccc78)C6)CC5)cc4)n3)C2)C1=O (some centres unmarked) > 90%

====

We begin with a simple list: items and their reported BTK degradation in OCI-LY10 cells Dmax.
# study.system: BTK (Homo sapiens (Human), UniProt Q06187)
# assay.details: BTK degradation in OCI-LY10 cells (Total-BTK HTRF kit)
# Type: cell-based
# run.parameters: OCI-LY10 cells, 24 (or 6) h incubation; maximum degradation rate
# Experimental: The detection was carried out using the Total-BTK Kits (cisbio, 63ADK064PEH), and 4× Supplemented Lysis buffer was prepared using the Blocking reagent stock solution (100×) and Lysis buffer stock solution (4×). Premixed antibody solutions were prepared using the Detection buffer, Total-BTK d2 antibody, and Total-BTK Eu Cryptate antibody. […]

Here is how some compounds turned out for BTK degradation in OCI-LY10 cells Dmax.
- compound: "CN1CCN([C@@H]2CCCN(c3cnc(C(N)=O)c(Nc4ccc(C5C[C@@H]6CN(CC7Cc8ccc9c(C%10CCC(=O)NC%10=O)noc9c8C7)C[C@@H]6C5)cc4)n3)C2)C1=O (some centres unmarked)"
  measurement.label: "BTK degradation in OCI-LY10 cells Dmax"
  observed: ">90%"
- compound: "CN1CCN([C@@H]2CCCN(c3cnc(C(N)=O)c(Nc4ccc(C5CCN(CC6Cc7ccc8c(C9CCC(=O)NC9=O)noc8c7C6)CC5)cc4)n3)C2)C1=O (some centres unmarked)"
  measurement.label: "BTK degradation in OCI-LY10 cells Dmax"
  observed: ">90%"
- compound: "CN1CCN([C@@H]2CCCN(c3cnc(C(N)=O)c(Nc4ccc(C5CCC6(CC5)CN(CC5Cc7ccc8c(C9CCC(=O)NC9=O)noc8c7C5)C6)cc4)n3)C2)C1=O (some centres unmarked)"
  measurement.label: "BTK degradation in OCI-LY10 cells Dmax"
  observed: ">90%"
- compound: "CN1CCN([C@@H]2CCCN(c3cnc(C(N)=O)c(Nc4ccc(C5CCC6(CC5)CN(C5CN(c7ccc8c(C9CCC(=O)NC9=O)noc8c7)C5)C6)cc4)n3)C2)C1=O (some centres unmarked)"
  measurement.label: "BTK degradation in OCI-LY10 cells Dmax"
  observed: "99%"

// fetch BTK (Homo sapiens (Human), UniProt Q06187) BTK degradation in OCI-LY10 cells Dmax for CN1CCN([C@@H]2CCCN(c3cnc(C(N)=O)c(Nc4ccc(C5CCN(C[C@@H]6CCC(c7cc8[nH]ccc8c8c(C9CCC(=O)NC9=O)noc78)C6)CC5)cc4)n3)C2)C1=O (some centres unmarked) 100%

// fetch BTK (Homo sapiens (Human), UniProt Q06187) BTK degradation in OCI-LY10 cells Dmax for CN1CCN([C@@H]2CCCN(c3cnc(C(N)=O)c(Nc4ccc(C5CCC6(CC5)CCN(CC5Cc7ccc8c(C9CCC(=O)NC9=O)noc8c7C5)CC6)cc4)n3)C2)C1=O (some centres unmarked) >90%

// fetch BTK (Homo sapiens (Human), UniProt Q06187) BTK degradation in OCI-LY10 cells Dmax for CN1CCN([C@@H]2CCCN(c3cnc(C(N)=O)c(Nc4ccc5c(c4)CCN(CC4Cc6ccc7c(C8CCC(=O)NC8=O)noc7c6C4)C5)n3)C2)C1=O (some centres unmarked) >90%

// fetch BTK (Homo sapiens (Human), UniProt Q06187) BTK degradation in OCI-LY10 cells Dmax for CN1CCN(C2CCCN(c3cnc(C(N)=O)c(Nc4ccc(C5CCC6(CC5)CN(C5Cc7ccc8c(C9CCC(=O)NC9=O)noc8c7C5)C6)cc4)n3)C2)C1=O (centres unmarked) >90%

// fetch BTK (Homo sapiens (Human), UniProt Q06187) BTK degradation in OCI-LY10 cells Dmax for CN1CCN([C@@H]2CCCN(c3cnc(C(N)=O)c(Nc4ccc(C5CCN(C[C@@H]6CCC(n7ccc8c9c(C%10CCC(=O)NC%10=O)noc9ccc87)C6)CC5)cc4)n3)C2)C1=O (some centres unmarked) 100%

// fetch BTK (Homo sapiens (Human), UniProt Q06187) BTK degradation in OCI-LY10 cells Dmax for CN1CCN([C@@H]2CCCN(c3cnc(C(N)=O)c(Nc4ccc(C5CCC(N6Cc7ccc8c(C9CCC(=O)NC9=O)noc8c7C6)CC5)cc4)n3)C2)C1=O (some centres unmarked) >90%

// fetch BTK (Homo sapiens (Human), UniProt Q06187) BTK degradation in OCI-LY10 cells Dmax for CN1CCN([C@@H]2CCCN(c3cnc(C(N)=O)c(Nc4ccc(C5CCN([C@H]6CC[C@H](n7ccc8c9c(C%10CCC(=O)NC%10=O)noc9ccc87)CC6)CC5)cc4)n3)C2)C1=O (some centres unmarked) 97.11%

====

# assay.details: Mouse pharmacokinetics
# Assay type: in vivo, ICR mice
# run.parameters: Mouse i.g. 10 mpk
measurement.label: F (%)

- compound: "CN1CCN([C@@H]2CCCN(c3cnc(C(N)=O)c(Nc4ccc(C5CCC(N6Cc7ccc8c(C9CCC(=O)NC9=O)noc8c7C6)CC5)cc4)n3)C2)C1=O (some centres unmarked)"
  observed: 26.0
- compound: "NC(=O)c1ncc(N2CCCCC2)nc1Nc1ccc(C2CCN(C3Cc4ccc5c(C6CCC(=O)NC6=O)noc5c4C3)CC2)cc1 (centres unmarked)"
  observed: 51.6
- compound: "CN1CCN([C@@H]2CCCN(c3cnc(C(N)=O)c(Nc4ccc(C5CCN(CC6CN(c7ccc8c(C9CCC(=O)NC9=O)noc8c7)C6)CC5)cc4)n3)C2)C1=O (some centres unmarked)"
  observed: 46.10
- compound: "CN1CCN([C@@H]2CCCN(c3cnc(C(N)=O)c(Nc4ccc(C5CCN(C6CN(c7ccc8c(C9CCC(=O)NC9=O)noc8c7)C6)CC5)cc4)n3)C2)C1=O (some centres unmarked)"
  observed: 57.98
- compound: "CN1CCN([C@@H]2CCCN(c3cnc(C(N)=O)c(Nc4ccc(C5CCN(CC6Cc7ccc8c(C9CCC(=O)NC9=O)noc8c7C6)CC5)cc4)n3)C2)C1=O (some centres unmarked) [Compound 90]"
  observed: 21.0

I = NC(=O)c1ncc(N2CCCCC2)nc1Nc1ccc(N2CCC(CN3CCc4ccc5c(C6CCC(=O)NC6=O)noc5c4CC3)CC2)cc1 (centres unmarked)
II = CN1CCN([C@@H]2CCCN(c3cnc(C(N)=O)c(Nc4ccc(C5CCN(CC6Cc7ccc8c(C9CCC(=O)NC9=O)noc8c7C6)CC5)cc4)n3)C2)C1=O (some centres unmarked) [Compound 89]
III = CN1CCN([C@@H]2CCCN(c3cnc(C(N)=O)c(Nc4ccc(N5CCC(CN6CCc7ccc8c(C9CCC(=O)NC9=O)noc8c7CC6)CC5)cc4)n3)C2)C1=O (some centres unmarked)
Order the 3 compounds from highest to lowest F. # the answer lists labels in the order requested I, III, II
(I: 64.50%, III: 44.0%, II: 24.5%)

FYI, the data here is from patent US20250152719A1.
